Source listed as ChEMBL document CHEMBL1126276.

- Tested on: Plasmodium berghei
- assay_overview: Antimalarial activity in Plasmodium berghei infected mice (Mus musculus) after subcutaneous 640 mg/kg dose
- Format: functional
Listed molecules paired with reported No. of cured mice
Number only, please.

Below, 5 molecules whose answers are already recorded.
>>> quantitative_readout("O=c1c2c(n(O)c3ccc(Cl)cc13)CC(c1cccc(C(F)(F)F)c1)C/C2=N\\CCCN1CCCC1 (centres undefined)")
4
>>> quantitative_readout("CN(C)CCC/N=C1\\CC(c2ccc(Cl)c(Cl)c2)Cc2c1c(=O)c1cc(Cl)ccc1n2O (centres undefined)")
5
>>> quantitative_readout("Cc1ccc(C2C/C(=N\\CCCN(C)C)c3c(nc4ccc(Cl)cc4c3O)C2)cc1 (centres undefined)")
2
>>> quantitative_readout("CN(C)CCCCCCC/N=C1\\CC(c2ccc(Cl)c(Cl)c2)Cc2c1c(=O)c1cc(Cl)ccc1n2O (centres undefined)")
5
>>> quantitative_readout("CC1C(=O)c2c(nc3ccc(Cl)cc3c2O)CC1c1ccc(Cl)c(Cl)c1 (centres undefined)")
5

Prompt line: Which No. of cured mice value is on record for O=c1c2c(n(O)c3ccc(Cl)cc13)CC(c1ccc(C(F)(F)F)cc1)C/C2=N\CCCN(CCO)CCO (centres undefined) ?
Response line: 5

Prompt line: Moving on to CCN(CC)CCCCCCC/N=C1\CC(c2ccc(C(F)(F)F)cc2)Cc2nc3ccc(Cl)cc3c(O)c21 (centres undefined)
Response line: 3

Prompt line: CN(C)CCC/N=C1\CC(c2cccc(C(F)(F)F)c2)Cc2c1c(=O)c1cc(Cl)ccc1n2O (centres undefined) , same question.
Response line: 5

Prompt line: // repeat for CN(C)CCC/N=C1\CC(c2cccc3ccccc23)Cc2c1c(=O)c1cc(Cl)ccc1n2O (centres undefined) and report
Response line: 5

###

- System: Plasmodium berghei
- assay_overview: Antimalarial activity in Plasmodium berghei infected mice (Mus musculus) after 320 mg/kg subcutaneous dose
- Assay type: functional
Below, each of the molecules is paired with its reported Delta mean survival time value.
No unit in the answer, please; the number alone is enough.

Below: 3 molecules and their reported Delta mean survival time.
>>> quantitative_readout("CCN(CC)C1CCC(/N=C2\\CC(c3ccc(Cl)c(Cl)c3)Cc3c2c(=O)c2cc(Cl)ccc2n3O)CC1 (stereo not given)")
12.1
>>> quantitative_readout("CN(C)CCC/N=C1\\CC(c2ccc(N(C)C)cc2)Cc2c1c(=O)c1cc(Cl)ccc1n2O (stereo not given)")
7.4
>>> quantitative_readout("O=c1c2c(n(O)c3ccc(Cl)cc13)CC(c1cccc(C(F)(F)F)c1)C/C2=N\\CCCCN1CCCC1 (stereo not given)")
0.5

Prompt line: Find the recorded Delta mean survival time belonging to COc1cc(C2CC(=O)c3c(n(O)c4ccc(Cl)cc4c3=O)C2)cc(OC)c1OC (stereo not given) and report it.
Response line: 2.7

Prompt line: Record: COCCC/N=C1\CC(c2cccc(C(F)(F)F)c2)Cc2c1c(=O)c1cc(Cl)ccc1n2O (stereo not given)
Response line: 13.8

###

- System: Plasmodium berghei
- assay_overview: Antimalarial activity in Plasmodium berghei infected mice (Mus musculus) after subcutaneous 640 mg/kg dose
- Format: functional
The reader will find reported No. of cured mice values listed item by item below.
Respond numerically, and do not add a unit to the figure.

Examples from the recorded data:
>>> quantitative_readout("CN(C)CCC/N=C1\\CC(c2ccc(Cl)cc2Cl)Cc2nc3cc(Cl)ccc3c(O)c21 (stereo not drawn)")
3
>>> quantitative_readout("CCN(CC)CC/N=C1\\CC(c2ccc(Cl)c(Cl)c2)Cc2c1c(=O)c1cc(Cl)ccc1n2O (stereo not drawn)")
5
>>> quantitative_readout("CCCCCCC/N=C1\\CC(c2cccc(C(F)(F)F)c2)Cc2c1c(=O)c1cc(Cl)ccc1n2O (stereo not drawn)")
5
>>> quantitative_readout("O=C1CC(c2ccc(Cl)c(Cl)c2)Cc2nc3ccc(Cl)cc3c(O)c21 (stereo not drawn)")
2
>>> quantitative_readout("O=C1CC(c2cccc3ccccc23)Cc2c1c(=O)c1cc(Cl)ccc1n2O (stereo not drawn)")
4

Prompt line: Name the reported No. of cured mice value associated with the compound CC1C(=O)c2c(nc3ccc(Cl)cc3c2O)CC1c1ccc(Cl)c(C(F)(F)F)c1 (stereo not drawn)
Response line: 2

Prompt line: Now consider O=c1c2c(n(O)c3ccc(Cl)cc13)CC(c1cccc(C(F)(F)F)c1)C/C2=N\Cc1ccc(Cl)c(Cl)c1 (stereo not drawn) .
Response line: 5

Prompt line: Also need CN(C)CCC/N=C1\CC(c2ccc(C3CCCCC3)cc2)Cc2nc3ccc(Cl)cc3c(O)c21 (stereo not drawn) , thanks.
Response line: 3

###

- Tested on: Plasmodium berghei
- assay_overview: Antimalarial activity Plasmodium berghei infected mice (Mus musculus) after 640 mg/kg subcutaneous dose
- Assay type: functional
readout_name: Delta mean survival time
Lab note: record the figure alone, no unit after it.

Some compounds with known Delta mean survival time results, for comparison:
>>> quantitative_readout("O=C1CC(c2ccc(C3CCCCC3)cc2)Cc2nc3ccc(Cl)cc3c(O)c21 (centres undefined)")
1.6
>>> quantitative_readout("CCN(CC)CC/N=C1\\CC(c2cc(OC)c(OC)c(OC)c2)Cc2c1c(=O)c1cc(Cl)ccc1n2O (centres undefined)")
6
>>> quantitative_readout("COc1ccccc1C1C/C(=N\\CCCN(C)C)c2c(nc3ccc(Cl)cc3c2O)C1 (centres undefined)")
6.4

--- query ---
Prompt line: What measured Delta mean survival time is associated with O=C1CC(c2ccc(C3CCCCC3)cc2)Cc2c1c(=O)c1cc(Cl)ccc1n2O (centres undefined) on Plasmodium berghei?
Response line: 4.1

###

- System: Plasmodium berghei
- assay_overview: Antimalarial activity in Plasmodium berghei infected mice (Mus musculus) after 80 mg/kg subcutaneous dose
- Assay type: functional
Catalogue of compounds with associated Delta mean survival time
Number only, please.

See these solved cases before continuing.
>>> quantitative_readout("N=C1CC(c2cccc(C(F)(F)F)c2)Cc2c1c(=O)c1cc(Cl)ccc1n2O (configuration not stated)")
3.4
>>> quantitative_readout("CN(C)CCC/N=C1\\CC(c2ccc(Cl)c(Cl)c2)Cc2nc3ccc(Cl)cc3c(O)c21 (configuration not stated)")
11.8
>>> quantitative_readout("CCCCNC(CC)C/N=C1\\CC(c2cccc(C(F)(F)F)c2)Cc2c1c(=O)c1cc(Cl)ccc1n2O (configuration not stated)")
10.9
>>> quantitative_readout("O=c1c2c(n(O)c3ccc(Cl)cc13)CC(c1ccc(C(F)(F)F)cc1)C/C2=N\\CCCN1CCCCC1 (configuration not stated)")
12
>>> quantitative_readout("O=c1c2c(n(O)c3ccc(Cl)cc13)CC(c1cccc(C(F)(F)F)c1)C/C2=N\\CCCCCCN1CCCCC1 (configuration not stated)")
6.4

Prompt line: Field request: Delta mean survival time | item: CCCCNCCC/N=C1\CC(c2ccc(Cl)c(Cl)c2)Cc2c1c(=O)c1cc(Cl)ccc1n2O (configuration not stated)
Response line: 9.1

Prompt line: Query CCN(CC)C1CCC(/N=C2\CC(c3ccc(Cl)c(Cl)c3)Cc3c2c(=O)c2cc(Cl)ccc2n3O)CC1 (configuration not stated) next
Response line: 7.2

Prompt line: // next record O=c1c2c(n(O)c3ccc(Cl)cc13)CC(c1cccc(C(F)(F)F)c1)C/C2=N\Cc1ccc(Cl)c(Cl)c1 (configuration not stated)
Response line: 4.4

###

- Test system: Plasmodium berghei
- assay_overview: Antimalarial activity in Plasmodium berghei infected mice (Mus musculus) after subcutaneous 320 mg/kg dose
- Type: functional
readout_name: No. of cured mice
Number only, no unit.

>>> quantitative_readout("CC1C(=O)c2c(n(O)c3ccc(Cl)cc3c2=O)CC1c1ccc(Cl)cc1Cl (stereo unspecified)")
5

Kindly review the next compound as well.
Prompt line: What value of No. of cured mice on Plasmodium berghei does CCCCNCCC/N=C1\CC(c2ccc(Cl)c(Cl)c2)Cc2c1c(=O)c1cc(Cl)ccc1n2O (stereo unspecified) have?
Response line: 5

###

- System: Plasmodium berghei
- assay_overview: Antimalarial activity in Plasmodium berghei infected mice (Mus musculus) after 80 mg/kg subcutaneous dose
- Format: functional
A collection of compounds and their measured Delta mean survival time
Give your answer as a number; write no unit.

Record excerpt, results attached:
>>> quantitative_readout("CCN(CC)CC(C)(C)C/N=C1\\CC(c2ccc(Cl)c(Cl)c2)Cc2c1c(=O)c1cc(Cl)ccc1n2O (stereo unspecified)")
10.3
>>> quantitative_readout("CN(C)CCC/N=C1\\CC(c2ccc(Cl)cc2Cl)Cc2nc3cc(Cl)ccc3c(O)c21 (stereo unspecified)")
12
>>> quantitative_readout("CCN(CCO)CCC/N=C1\\CC(c2ccc(Cl)c(Cl)c2)Cc2c1c(=O)c1cc(Cl)ccc1n2O (stereo unspecified)")
9.6
>>> quantitative_readout("CN(C)CCC/N=C1\\CC(c2ccncc2)Cc2nc3ccc(Cl)cc3c(O)c21 (stereo unspecified)")
1.3
>>> quantitative_readout("COc1ccc(C2C/C(=N\\CCCN(C)C)c3c(n(O)c4ccc(Cl)cc4c3=O)C2)cc1 (stereo unspecified)")
0.1
>>> quantitative_readout("C=CCNCC/N=C1\\CC(c2cccc(C(F)(F)F)c2)Cc2c1c(=O)c1cc(Cl)ccc1n2O (stereo unspecified)")
9.4
>>> quantitative_readout("O=c1c2c(n(O)c3ccc(Cl)cc13)CC(c1ccc(Cl)c(Cl)c1)C/C2=N\\CCCN1CCCCC1 (stereo unspecified)")
9.2
>>> quantitative_readout("O=C1CC(c2ccc(F)cc2)Cc2c1c(=O)c1cc(Cl)ccc1n2O (stereo unspecified)")
9.8

Prompt line: Which value of Delta mean survival time has been reported for CCN1CCCC(/N=C2\CC(c3ccc(Cl)c(Cl)c3)Cc3c2c(=O)c2cc(Cl)ccc2n3O)C1 (stereo unspecified) in the records?
Response line: 7.2

Prompt line: Same again, this time with CN(C)CCC/N=C1\CC(c2c(Cl)cccc2Cl)Cc2c1c(=O)c1cc(Cl)ccc1n2O (stereo unspecified)
Response line: 4.1

Prompt line: Check O=c1c2c(n(O)c3ccc(Cl)cc13)CC(c1ccc(Cl)c(Cl)c1)C/C2=N\CCCN(CCO)CCO (stereo unspecified) too.
Response line: 7.9

Prompt line: Try the compound COc1ccc2nc3c(c(O)c2c1)C(=O)CC(c1ccc(C(F)(F)F)cc1)C3 (stereo unspecified)
Response line: 0.1

Prompt line: Repeat with CN(C)CCC/N=C1\CC(c2ccc(C(F)(F)F)cc2)Cc2nc3ccc([N+](=O)[O-])cc3c(O)c21 (stereo unspecified)
Response line: 8.9

Prompt line: What do you have for O=C1CC(c2ccc(C(F)(F)F)cc2)Cc2c1c(=O)c1c(Cl)c(Cl)ccc1n2O (stereo unspecified) ?
Response line: 7.8

Prompt line: Another compound to look at: CN(C)CCC/N=C1\CC(c2cccc(C(F)(F)F)c2)Cc2c1c(=O)c1cc(Cl)ccc1n2O (stereo unspecified)
Response line: 9.6

Prompt line: Field entry: O=C1CC(c2ccccc2)Cc2c1c(=O)c1cc(Cl)ccc1n2O (stereo unspecified)
Response line: 5.6

Prompt line: Try the compound CCN(CC/N=C1\CC(c2ccc(Cl)c(Cl)c2)Cc2c1c(=O)c1cc(Cl)ccc1n2O)CC(C)(C)O (stereo unspecified)
Response line: 8
